Reference for the values: patent US20150105252A1

Provide the recorded Corn plant response rating for the entries that follow.
- Tested on: corn
- measurementDescription: Test A postemergence
- Type: in vivo, Zea mays
- statedConditions: Postemergence, 500 g ai/ha; 0 to 100 scale (0 no effect, 100 complete control)
// return a plain number; no unit text

For the molecule `O=C(NCC(F)(F)F)c1cc(CCCl)n(Cc2ccnc(C(F)(F)F)c2)n1` , what Corn plant response rating is on record? 90

For the molecule `CCc1cc(C(=O)NC(C)C)nn1Cc1cc(OC(F)F)nn1C` , what Corn plant response rating is on record? 30

For the molecule `CCCc1cc(C(=O)NCC(F)(F)F)nn1Cc1cc(C(F)(F)F)nn1C` , what Corn plant response rating is on record? 90

For the molecule `O=C(NC1CC1)c1cc(Br)n(Cc2cccc(C(F)(F)F)c2)n1` , what Corn plant response rating is on record? 20
